testedTarget: thermolysin-like protease of E. oxidotolerans (exiguolysin) (Exiguobacterium oxidotolerans)
Sequence (A0A653I866 entry or part of it): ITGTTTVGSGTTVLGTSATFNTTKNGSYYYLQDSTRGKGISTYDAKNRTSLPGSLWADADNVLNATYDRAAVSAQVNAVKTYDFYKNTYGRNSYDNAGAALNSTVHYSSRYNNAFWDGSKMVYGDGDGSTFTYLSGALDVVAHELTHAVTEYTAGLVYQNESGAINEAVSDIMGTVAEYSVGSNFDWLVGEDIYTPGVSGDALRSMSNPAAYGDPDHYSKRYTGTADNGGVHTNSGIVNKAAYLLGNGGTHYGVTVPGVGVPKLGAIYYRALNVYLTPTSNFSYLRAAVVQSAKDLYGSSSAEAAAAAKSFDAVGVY
valueKind: Ki (µM)

compound="N=C(N)NCCCC(NC(=O)C1CCCN1C(=O)CS)C(N)=O (stereo not shown)" displayunit=µM obsvalue=3.97
compound="CC(C)C(NC(=O)C(NC(=O)CS)C(C)C)C(N)=O (stereo not shown)" displayunit=µM obsvalue=3.21
compound="CCC(C)C(NC(=O)CS)C(=O)NC(C(N)=O)C(C)C (stereo not shown)" displayunit=µM obsvalue=8.33
compound="NC(=O)CC(NC(=O)CS)C(=O)NC(Cc1ccc(O)cc1)C(N)=O (stereo not shown)" displayunit=µM obsvalue=5.71

###

testedTarget: UniProt:A0A653I866
Kindly apply the following: Condition met if Ki is less than 6 µM, Condition not met in every other case.

compound="NC(=O)C(Cc1ccccc1)NC(=O)C(Cc1ccc(O)cc1)NC(=O)CS (stereo not drawn) [Me-Tyr-Phe-NH2]" group="Condition met"
compound="NCCCCC(NC(=O)C(CC(N)=O)NC(=O)CS)C(N)=O (stereo not drawn) [Me-Asn-Lys-NH2]" group="Condition not met"
compound="NC(=O)CC(NC(=O)CS)C(=O)NC(Cc1c[nH]c2ccccc12)C(N)=O (stereo not drawn) [Me-Asn-Trp-NH2]" group="Condition met"
compound="CSCCC(NC(=O)CS)C(=O)NC(Cc1ccc(O)cc1)C(N)=O (stereo not drawn) [Me-Met-Tyr-NH2, SH-CH2-CO-Met-Tyr-NH2]" group="Condition met"
compound="CCC(C)C(NC(=O)C(NC(=O)CS)C(C)CC)C(N)=O (stereo not drawn) [Me-Ile-Ile-NH2]" group="Condition not met"
